Measured kon values are reported for all entries that follow.
- Assay target: T1, cMetECDHis (human, UniProt P08581 25-932, limits assumed, biotinylated in the cross-block ELISA of Example 17)
- T1 construct: Expressed in HEK-293F cells; also called soluble cMetECDHis; biotinylated cMetECDHis
- Experiment: BLI (Octet); antibody captured, cMetECDHis in solution
Reported endpoint: kon (M⁻¹ s⁻¹)

binder="anti-c-Met HuMab 098 (IgG1) (antibody, V domains shown, also called TH1016-098; PC1016-098) VH: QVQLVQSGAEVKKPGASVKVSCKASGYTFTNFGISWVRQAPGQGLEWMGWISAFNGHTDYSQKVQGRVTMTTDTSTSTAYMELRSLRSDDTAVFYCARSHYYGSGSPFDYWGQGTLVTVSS VL: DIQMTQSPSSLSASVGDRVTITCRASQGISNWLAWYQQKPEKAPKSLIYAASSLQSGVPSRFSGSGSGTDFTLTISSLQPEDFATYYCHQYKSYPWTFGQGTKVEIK" reported_endpoint=kon numeric_result=164000
binder="IgG1-1016-022 (antibody, V domains shown, also called TH1016-022; PC1016-022) VH: QVQLVESGGGVVQPGRSLRLSCAASGFTFSSYAMHWVRQAPGKGLEWVAVISYDGSNKYYADSVKGRFTISRDNSKNTLYLQMNSLRAEDTAVYYCARELLWFGELWGYFDLWGRGTLVTVSS VL: DIQMTQSPSSVSASVGDRVTITCRASQGISSWLAWYQHKPGKAPKLLIYAASSLQSGVPSRFSGSGSGTDFTLTISSLQPEDFATYYCQEASSFTWTFGQGTKVEIK" reported_endpoint=kon numeric_result=236000
